Origin of the recorded values: paper PMC7402526

# System: lymphocyte progenitors (LymP)
# assay_protocol: MLTA, LymP: concentration-response and QSP model fit
# Type: cell-based, human
# reported_conditions: Homo sapiens, Lymphocyte, 144 h; dose 25 nM, 6 days, normalized to vehicle control; read-out: LymP normalized cell count
property_name: activity at 0.025 µM (%)
Answers are plain numbers, in %.

compound | target_under_test | reading_unit | observed_value
CCN1CCN(Cc2ccc(Nc3ncc(F)c(-c4cc(F)c5nc(C)n(C(C)C)c5c4)n3)nc2)CC1 | lymphocyte progenitors (LymP) | % | 38.9
CC(=O)O[C@@]12CO[C@@H]1C[C@H](O)[C@@]1(C)C(=O)[C@H](O)C3=C(C)[C@@H](OC(=O)[C@H](O)[C@@H](NC(=O)OC(C)(C)C)c4ccccc4)C[C@@](O)([C@@H](OC(=O)c4ccccc4)[C@H]21)C3(C)C | lymphocyte progenitors (LymP) | % | 6.02

Please state, for each entry, its recorded activity at 0.025 µM.
1. CN(C)C(=O)c1cc2cnc(Nc3ccc(N4CCNCC4)cn3)nc2n1C1CCCC1
2. O=C1CCC(N2C(=O)c3ccccc3C2=O)C(=O)N1 (centres unmarked) [thalidomide]
3. CC(=O)O[C@H]1C(=O)[C@@]2(C)[C@H]([C@H](OC(=O)c3ccccc3)[C@]3(O)C[C@H](OC(=O)[C@H](O)[C@@H](NC(=O)c4ccccc4)c4ccccc4)C(C)=C1C3(C)C)[C@]1(OC(C)=O)CO[C@@H]1C[C@@H]2O
4. CC(=O)c1c(C)c2cnc(Nc3ccc(N4CCNCC4)cn3)nc2n(C2CCCC2)c1=O
5. CCc1cnn2c(NCc3ccc[n+]([O-])c3)cc(N3CCCC[C@H]3CCO)nc12
6. CS(=O)(=O)N1CCN(Cc2cc3nc(-c4cccc5[nH]ncc45)nc(N4CCOCC4)c3s2)CC1

OUT:
[61.7, 126, 9.53, 38, 38.3, 77.7]

---

# Tested on: lymphocyte progenitors (LymP)
# assay_protocol: MLTA, LymP: concentration-response and QSP model fit
# Format: cell-based, human
# reported_conditions: Homo sapiens, Lymphocyte, 144 h; dose 2500 nM, 6 days, normalized to vehicle control; read-out: LymP normalized cell count
property_name: activity at 2.5 µM (%)
One number for each entry, in %.

molecule | reading_unit | activity at 2.5 µM
CC(=O)c1c(C)c2cnc(Nc3ccc(N4CCNCC4)cn3)nc2n(C2CCCC2)c1=O | % | 4.62
CC(=O)O[C@H]1C(=O)[C@@]2(C)[C@H]([C@H](OC(=O)c3ccccc3)[C@]3(O)C[C@H](OC(=O)[C@H](O)[C@@H](NC(=O)c4ccccc4)c4ccccc4)C(C)=C1C3(C)C)[C@]1(OC(C)=O)CO[C@@H]1C[C@@H]2O | % | 9.6
CC(=O)O[C@@]12CO[C@@H]1C[C@H](O)[C@@]1(C)C(=O)[C@H](O)C3=C(C)[C@@H](OC(=O)[C@H](O)[C@@H](NC(=O)OC(C)(C)C)c4ccccc4)C[C@@](O)([C@@H](OC(=O)c4ccccc4)[C@H]21)C3(C)C | % | 6.19
O=C1CCC(N2C(=O)c3ccccc3C2=O)C(=O)N1 (centres unmarked) [thalidomide] | % | 139
CCc1cnn2c(NCc3ccc[n+]([O-])c3)cc(N3CCCC[C@H]3CCO)nc12 | % | 2.53
CCN1CCN(Cc2ccc(Nc3ncc(F)c(-c4cc(F)c5nc(C)n(C(C)C)c5c4)n3)nc2)CC1 | % | 7.46

Parameters: items (list). Returns: activity at 2.5 µM for each item.
1. CN(C)C(=O)c1cc2cnc(Nc3ccc(N4CCNCC4)cn3)nc2n1C1CCCC1
2. CS(=O)(=O)N1CCN(Cc2cc3nc(-c4cccc5[nH]ncc45)nc(N4CCOCC4)c3s2)CC1

OUT:
1: 4.31; 2: 19.2

---

# Tested on: monocytes (monocyte-lin)
# assay_protocol: MLTA, Mono: concentration-response and QSP model fit
# Format: cell-based, human
# reported_conditions: Homo sapiens, Monocyte, 144 h; dose 100 nM, 6 days, normalized to vehicle control; read-out: Mon normalized cell count
property_name: activity at 0.1 µM (%)
Numbers only, in %.

molecule | reading_unit | observed_value
CC(=O)c1c(C)c2cnc(Nc3ccc(N4CCNCC4)cn3)nc2n(C2CCCC2)c1=O [palbociclib] | % | 25.6
O=C1CCC(N2C(=O)c3ccccc3C2=O)C(=O)N1 (stereo not drawn) [thalidomide] | % | 94.4

Next item in the queue.
Entry CC(=O)O[C@@]12CO[C@@H]1C[C@H](O)[C@@]1(C)C(=O)[C@H](O)C3=C(C)[C@@H](OC(=O)[C@H](O)[C@@H](NC(=O)OC(C)(C)C)c4ccccc4)C[C@@](O)([C@@H](OC(=O)c4ccccc4)[C@H]21)C3(C)C [docetaxel] , activity at 0.1 µM reported as 1.06

---

# System: granulocytes (Gran-lin)
# assay_protocol: MLTA, Gran: concentration-response and QSP model fit
# Type: cell-based, human
# reported_conditions: Homo sapiens, 144 h; parameter from QSP model fitting; read-out: Emax_drug_Gran
Binary label based on Emax with cut-off 0.03%: below gives 1, not below gives -1.

Worked examples follow.
compound | target_under_test | label
O=C1CCC(N2C(=O)c3ccccc3C2=O)C(=O)N1 (stereo not shown) [thalidomide] | granulocytes (Gran-lin) | 1
Cc1sc2c(c1C)C(c1ccc(Cl)cc1)=N[C@@H](CC(=O)Nc1ccc(O)cc1)c1nnc(C)n1-2 [OTX015] | granulocytes (Gran-lin) | -1
CC(=O)O[C@H]1C(=O)[C@@]2(C)[C@H]([C@H](OC(=O)c3ccccc3)[C@]3(O)C[C@H](OC(=O)[C@H](O)[C@@H](NC(=O)c4ccccc4)c4ccccc4)C(C)=C1C3(C)C)[C@]1(OC(C)=O)CO[C@@H]1C[C@@H]2O [paclitaxel] | granulocytes (Gran-lin) | -1
Nc1ccn([C@@H]2O[C@H](CO)[C@@H](O)[C@@H]2O)c(=O)n1 [Cytarabine] | granulocytes (Gran-lin) | -1
Nc1cccc2c1CN(C1CCC(=O)NC1=O)C2=O (stereo not shown) [Lenalidomide] | granulocytes (Gran-lin) | 1
CS(=O)(=O)N1CCN(Cc2cc3nc(-c4cccc5[nH]ncc45)nc(N4CCOCC4)c3s2)CC1 [pictilisib] | granulocytes (Gran-lin) | -1

IN: Identify whether the compound CCc1cnn2c(NCc3ccc[n+]([O-])c3)cc(N3CCCC[C@H]3CCO)nc12 [dinaciclib] records Emax below 0.03%.
OUT: -1

---

So I've got a bunch of molecules here, and I need their activity at 0.5 µM values.
# Tested on: early erythroid cells (Eryth I)
# assay_protocol: MLTA, ErythI: concentration-response and QSP model fit
# Type: cell-based, human
# reported_conditions: Homo sapiens, 144 h; dose 500 nM, 6 days, normalized to vehicle control; read-out: ErythI normalized cell count
Answers are plain numbers, in %.

# annotated cases, reported activity at 0.5 µM shown
molecule | activity at 0.5 µM [%]
CS(=O)(=O)N1CCN(Cc2cc3nc(-c4cccc5[nH]ncc45)nc(N4CCOCC4)c3s2)CC1 | 65.5
O=C1CCC(N2C(=O)c3ccccc3C2=O)C(=O)N1 (stereo not shown) [thalidomide] | 114
CCc1cnn2c(NCc3ccc[n+]([O-])c3)cc(N3CCCC[C@H]3CCO)nc12 | 0.888

Summary for this molecule, CN(C)C(=O)c1cc2cnc(Nc3ccc(N4CCNCC4)cn3)nc2n1C1CCCC1 : activity at 0.5 µM is 31.2

---

# System: B cells (B-lin)
# assay_protocol: MLTA, B-lin: concentration-response and QSP model fit
# Assay type: cell-based, human
# reported_conditions: Homo sapiens, B-cell, 144 h; dose 5 nM, 6 days, normalized to vehicle control; read-out: B-lin normalized cell count
Lab note: compare activity at 0.005 µM against 80%. Equal or greater, write MET. Smaller, write NOT MET.

IN: Identify whether the reported activity at 0.005 µM of the following compound is 80% or greater: CCN1CCN(Cc2ccc(Nc3ncc(F)c(-c4cc(F)c5nc(C)n(C(C)C)c5c4)n3)nc2)CC1
OUT: MET

IN: Quick check, activity at 0.005 µM >= 80%? CC(=O)O[C@@]12CO[C@@H]1C[C@H](O)[C@@]1(C)C(=O)[C@H](O)C3=C(C)[C@@H](OC(=O)[C@H](O)[C@@H](NC(=O)OC(C)(C)C)c4ccccc4)C[C@@](O)([C@@H](OC(=O)c4ccccc4)[C@H]21)C3(C)C
OUT: NOT MET

IN: Does O=C1CCC(N2C(=O)c3ccccc3C2=O)C(=O)N1 (centres unmarked) [thalidomide] have a reported activity at 0.005 µM of at least 80%?
OUT: MET

IN: Is activity at 0.005 µM for CCc1cnn2c(NCc3ccc[n+]([O-])c3)cc(N3CCCC[C@H]3CCO)nc12 at or above 80%?
OUT: MET

IN: Does the compound CC(=O)O[C@H]1C(=O)[C@@]2(C)[C@H]([C@H](OC(=O)c3ccccc3)[C@]3(O)C[C@H](OC(=O)[C@H](O)[C@@H](NC(=O)c4ccccc4)c4ccccc4)C(C)=C1C3(C)C)[C@]1(OC(C)=O)CO[C@@H]1C[C@@H]2O have recorded activity at 0.005 µM that is 80% or more?
OUT: NOT MET

IN: Assess whether reported activity at 0.005 µM for CC(=O)c1c(C)c2cnc(Nc3ccc(N4CCNCC4)cn3)nc2n(C2CCCC2)c1=O sits at 80% or higher.
OUT: NOT MET
